Experiment: in vivo
Conditions: BALB/c nude, mouse, in vivo, iv, total radioactivity, % ID/g Muscle
Values of tissue uptake at 24 h greater than or equal to 0.1 %ID/g map to 1; values below map to -1.

Asked: Please check the record CC(C)(C)C(=O)CN1C(=O)[C@H](NC(=O)Nc2cccc(C(=O)N[C@@H](CCC(=O)N[C@@H](CCC(=O)N[C@@H](CCC(=O)N[C@@H](CCCCNC(=O)COCCOCCNC(=O)COCCOCCNC(=O)CCC(C(=O)O)N3CCN(CC(=O)O)CCN(CC(=O)O)CCN(CC(=O)O)CC3)C(N)=O)C(=O)O)C(=O)O)C(=O)O)c2)CN(C2CCCCC2)c2ccccc21 (some centres unmarked) [^177Lu-C-4, metal not drawn, reference compound] and state if its tissue uptake at 24 h is at or above 0.1 %ID/g.
Given back: -1

Asked: Please check the record C[C@@H](O)[C@H](NC(=O)[C@@H]1CSSC[C@H](NC(=O)[C@@H](Cc2ccccc2)NC(=O)CN2CCN(CC(=O)O)CCN(CC(=O)O)CCN(CC(=O)O)CC2)C(=O)N[C@@H](Cc2ccc(O)cc2)C(=O)N[C@H](Cc2c[nH]c3ccccc23)C(=O)N[C@@H](CCCCN)C(=O)N[C@@H]([C@@H](C)O)C(=O)N1)C(=O)O [^177Lu-C-1, metal not drawn, reference compound] and state if its tissue uptake at 24 h is at or above 0.1 %ID/g.
Given back: -1

Asked: Please check the record C[C@@H](O)[C@H](NC(=O)[C@@H]1CSSC[C@H](NC(=O)[C@@H](Cc2ccccc2)NC(=O)[C@H](CCCCNC(=O)COCCOCCNC(=O)c2cccc(NC(=O)N[C@@H]3CN(C4CCCCC4)c4ccccc4N(CC(=O)C(C)(C)C)C3=O)c2)NC(=O)CN2CCN(CC(=O)O)CCN(CC(=O)O)CCN(CC(=O)O)CC2)C(=O)N[C@@H](Cc2ccc(O)cc2)C(=O)N[C@H](Cc2c[nH]c3ccccc23)C(=O)N[C@@H](CCCCN)C(=O)N[C@@H]([C@@H](C)O)C(=O)N1)C(=O)O [^177Lu-I-36, metal not drawn] and state if its tissue uptake at 24 h is at or above 0.1 %ID/g.
Given back: 1

Asked: Please check the record C[C@@H](O)[C@H](NC(=O)[C@@H]1CSSC[C@H](NC(=O)[C@@H](Cc2ccccc2)NC(=O)COCCOCCNC(=O)COCCOCCNC(=O)[C@H](CCCCNC(=O)c2cccc(NC(=O)N[C@@H]3CN(C4CCCCC4)c4ccccc4N(CC(=O)C(C)(C)C)C3=O)c2)NC(=O)CN2CCN(CC(=O)O)CCN(CC(=O)O)CCN(CC(=O)O)CC2)C(=O)N[C@@H](Cc2ccc(O)cc2)C(=O)N[C@H](Cc2c[nH]c3ccccc23)C(=O)N[C@@H](CCCCN)C(=O)N[C@@H]([C@@H](C)O)C(=O)N1)C(=O)O [Compound 177Lu-I-39, metal not drawn] and state if its tissue uptake at 24 h is at or above 0.1 %ID/g.
Given back: 1

* * *

Assay: in vivo
Conditions: BALB/c nude, mouse, in vivo, iv, total radioactivity, T/K Tumor/Kidney ratio
Protocol: To a 0.5 M NaOAc buffer (20-50 μL, pH=4.5) was added 4 μL of exemplary or comparator compound in DMSO stock solution (2000 μM) and 2 mCi ^177Lu (ITM Isotope Technologies Munich), the resulting mixture was heated to 95° C. for 15 min. The resulting product was analyzed by radio-TLC and radio-HPLC (column: Shim-pack GIST 5 μm 4.6*150 mm; buffer A: 0.2% formic acid H2O; buffer B: 0.1% formic acid acetonitrile; flow rate: 1 mL/min; gradient: 0-5 min: 10% B to 95% B; then 5-8 min: 95% B). […]
tissue to tissue ratio at 24 h by entry:

Some molecules with known tissue to tissue ratio at 24 h results, for comparison:
molecule	tissue to tissue ratio at 24 h
C[C@@H](O)[C@H](NC(=O)[C@@H]1CSSC[C@H](NC(=O)[C@@H](Cc2ccccc2)NC(=O)CC[C@H](NC(=O)[C@H](CCCCNC(=O)CC[C@H](NC(=O)CNC(=O)c2cccc(NC(=O)N[C@@H]3CN(C4CCCCC4)c4ccccc4N(CC(=O)C(C)(C)C)C3=O)c2)C(=O)O)NC(=O)CC[C@H](NC(=O)CN2CCN(CC(=O)O)CCN(CC(=O)O)CCN(CC(=O)O)CC2)C(=O)O)C(=O)O)C(=O)N[C@@H](Cc2ccc(O)cc2)C(=O)N[C@H](Cc2c[nH]c3ccccc23)C(=O)N[C@@H](CCCCN)C(=O)N[C@@H]([C@@H](C)O)C(=O)N1)C(=O)O	0.3
C[C@@H](O)[C@H](NC(=O)[C@@H]1CSSC[C@H](NC(=O)[C@@H](Cc2ccccc2)NC(=O)CCOCCOCCOCCOCCOCCOCCNC(=O)[C@H](CCCCNC(=O)c2cccc(NC(=O)N[C@@H]3CN(C4CCCCC4)c4ccccc4N(CC(=O)C(C)(C)C)C3=O)c2)NC(=O)CN2CCN(CC(=O)O)CCN(CC(=O)O)CCN(CC(=O)O)CC2)C(=O)N[C@@H](Cc2ccc(O)cc2)C(=O)N[C@H](Cc2c[nH]c3ccccc23)C(=O)N[C@@H](CCCCN)C(=O)N[C@@H]([C@@H](C)O)C(=O)N1)C(=O)O [Compound I-40, DOTA-K(Z360)-PEG6-f[CYwKTC]T-OH]	2
C[C@@H](O)[C@H](NC(=O)[C@@H]1CSSC[C@H](NC(=O)[C@@H](Cc2ccccc2)NC(=O)CNC(=O)COCCOCCNC(=O)[C@H](CCCCNC(=O)c2cccc(NC(=O)N[C@@H]3CN(C4CCCCC4)c4ccccc4N(CC(=O)C(C)(C)C)C3=O)c2)NC(=O)CN2CCN(CC(=O)O)CCN(CC(=O)O)CCN(CC(=O)O)CC2)C(=O)N[C@@H](Cc2ccc(O)cc2)C(=O)N[C@H](Cc2c[nH]c3ccccc23)C(=O)N[C@@H](CCCCN)C(=O)N[C@@H]([C@@H](C)O)C(=O)N1)C(=O)O [Compound I-53, DOTA-K(Z360)-OEG-G-f[CYwKTC]T-OH]	2.3

Attention now shifts to the item below.
Asked: tissue to tissue ratio at 24 h lookup needed for C[C@@H](O)[C@H](NC(=O)[C@@H]1CSSC[C@H](NC(=O)[C@@H](Cc2ccccc2)NC(=O)[C@H](CCCCNC(=O)COCCOCCNC(=O)COCCOCCNC(=O)c2cccc(NC(=O)N[C@@H]3CN(C4CCCCC4)c4ccccc4N(CC(=O)C(C)(C)C)C3=O)c2)NC(=O)CN2CCN(CC(=O)O)CCN(CC(=O)O)CCN(CC(=O)O)CC2)C(=O)N[C@@H](Cc2ccc(O)cc2)C(=O)N[C@H](Cc2c[nH]c3ccccc23)C(=O)N[C@@H](CCCCN)C(=O)N[C@@H]([C@@H](C)O)C(=O)N1)C(=O)O [Compound I-42, DOTA-K(-OEG-OEG-Z360)-f]CYwKTC]T-OH] , thanks.
Given back: 1.1

* * *

Test: in vivo
Conditions: BALB/c nude, mouse, in vivo, iv, total radioactivity, uptake Stomach
Procedure: To a 0.5 M NaOAc buffer (20-50 μL, pH=4.5) was added 4 μL of exemplary or comparator compound in DMSO stock solution (2000 μM) and 2 mCi ^177Lu (ITM Isotope Technologies Munich), the resulting mixture was heated to 95° C. for 15 min. The resulting product was analyzed by radio-TLC and radio-HPLC (column: Shim-pack GIST 5 μm 4.6*150 mm; buffer A: 0.2% formic acid H2O; buffer B: 0.1% formic acid acetonitrile; flow rate: 1 mL/min; gradient: 0-5 min: 10% B to 95% B; then 5-8 min: 95% B). […]
property: tissue uptake at 24 h (%ID/g)
Give your result in %ID/g as a bare value.

compound	numeric result
C[C@@H](O)[C@H](NC(=O)[C@@H]1CSSC[C@H](NC(=O)[C@@H](Cc2ccccc2)NC(=O)COCCOCCNC(=O)[C@H](CCCCNC(=O)c2cccc(NC(=O)N[C@@H]3CN(C4CCCCC4)c4ccccc4N(CC(=O)C(C)(C)C)C3=O)c2)NC(=O)COCCOCCNC(=O)CN2CCN(CC(=O)O)CCN(CC(=O)O)CCN(CC(=O)O)CC2)C(=O)N[C@@H](Cc2ccc(O)cc2)C(=O)N[C@H](Cc2c[nH]c3ccccc23)C(=O)N[C@@H](CCCCN)C(=O)N[C@@H]([C@@H](C)O)C(=O)N1)C(=O)O [Compound I-52, DOTA-OEG-K(Z360)-OEG-f[CYwKTC]T-OH]	5.1
C[C@@H](O)[C@H](NC(=O)[C@@H]1CSSC[C@H](NC(=O)[C@@H](Cc2ccccc2)NC(=O)[C@H](CCCCNC(=O)c2cccc(NC(=O)N[C@@H]3CN(C4CCCCC4)c4ccccc4N(CC(=O)C(C)(C)C)C3=O)c2)NC(=O)COCCOCCNC(=O)COCCOCCNC(=O)CN2CCN(CC(=O)O)CCN(CC(=O)O)CCN(CC(=O)O)CC2)C(=O)N[C@@H](Cc2ccc(O)cc2)C(=O)N[C@H](Cc2c[nH]c3ccccc23)C(=O)N[C@@H](CCCCN)C(=O)N[C@@H]([C@@H](C)O)C(=O)N1)C(=O)O [Compound I-41, DOTA-OEG-OEG-K(Z360)-f[CYwKTC]T-OH]	4
C[C@@H](O)[C@H](NC(=O)[C@@H]1CSSC[C@H](NC(=O)[C@@H](Cc2ccccc2)NC(=O)COCCOCCNC(=O)[C@H](CCCCNC(=O)c2cccc(NC(=O)N[C@@H]3CN(C4CCCCC4)c4ccccc4N(CC(=O)C(C)(C)C)C3=O)c2)NC(=O)CN2CCN(CC(=O)O)CCN(CC(=O)O)CCN(CC(=O)O)CC2)C(=O)N[C@@H](Cc2ccc(O)cc2)C(=O)N[C@H](Cc2c[nH]c3ccccc23)C(=O)N[C@@H](CCCCN)C(=O)N[C@@H]([C@@H](C)O)C(=O)N1)C(=O)O [Compound I-37, DOTA-K(Z360)-OEG-f[CYwKTC]T-OH]	2.58

Asked: tissue uptake at 24 h lookup needed for C[C@@H](O)[C@H](NC(=O)[C@@H]1CSSC[C@H](NC(=O)[C@@H](Cc2ccccc2)NC(=O)COCCOCCNC(=O)[C@H](CCCCNC(=O)CC[C@H](NC(=O)CNC(=O)c2cccc(NC(=O)N[C@@H]3CN(C4CCCCC4)c4ccccc4N(CC(=O)C(C)(C)C)C3=O)c2)C(=O)O)NC(=O)CN2CCN(CC(=O)O)CCN(CC(=O)O)CCN(CC(=O)O)CC2)C(=O)N[C@@H](Cc2ccc(O)cc2)C(=O)N[C@H](Cc2c[nH]c3ccccc23)C(=O)N[C@@H](CCCCN)C(=O)N[C@@H]([C@@H](C)O)C(=O)N1)C(=O)O , thanks.
Given back: 2.53

Data origin: patent US20260248972A1
